Cited source for all entries: ChEMBL document CHEMBL5331043

- Tested on: A-431
- Experiment Description: Cytotoxicity against human A-431 cells assessed as reduction in cell viability measured after 72 hrs by MTT assay
- Assay type: functional, cell-based
- Measurement Conditions: A-431, 72 h
Endpoint: IC50
Returns: string containing the numeric result and its unit.

Problem: Specify measured IC50 for COc1cc2c(c(O)c1OC)c(=O)c1ccccc1n2C [ARBORININE] .
Result: 1.84 µM

----------
- Tested on: CCRF-CEM
- Experiment Description: Cytotoxicity against human CCRF-CEM cells assessed as cell growth inhibition
- Assay type: functional, cell-based
Endpoint: pIC50
Value format note: pIC50 is -log10 of concentration (mol/L); just state the number.

Problem: Read the entry COc1cc(Cn2c3ccc(C(=O)CCN4CCCC4)cc3c(=O)c3cc(C(=O)NCCN4CCCC4)ccc32)cc(OC)c1 and write its reported pIC50.
Result: 6.55

----------
In this section we review reported IC50 values for a set of compounds.
- Tested on: PC-3
- Experiment Description: Antiproliferative activity against human PC-3 cells assessed as reduction in cell viability measured after 24 hrs by MTT assay
- Assay type: functional, cell-based
- Measurement Conditions: PC-3, 24 h
Answer format: value, then unit.

Problem: Identify measured IC50 associated with CCN(CC)CCNC(=O)c1ccc([N+](=O)[O-])c2[nH]c3ccccc3c(=O)c12
Result: 2 µM

Problem: For CN(C)CCNC(=O)c1ccc([N+](=O)[O-])c2[nH]c3ccccc3c(=O)c12 , write its IC50.
Result: 1.2 µM
